molecular target: Glucocorticoid receptor (Homo sapiens, UniProt P04150); experiment: Transrepression activity at glucocorticoid receptor in human H292 cells assessed as inhibition of TNF-stimulated IL-6 cytokine synthesis; format: cell-based
pIC50: −log10 of the molar value.
PROPERTY: pIC50

Consider the reported pIC50 for these molecules:
{"STRUCTURE_NOTATION": "C[C@]12CCC(=O)C=C1CC[C@@H]1[C@@H]2[C@@H](O)C[C@@]2(C)[C@H]1CC[C@]2(OC(=O)c1ccco1)C(=O)CSc1ncccn1", "VAL": 8.01}
{"STRUCTURE_NOTATION": "C[C@]12CCC(=O)C=C1CC[C@@H]1[C@@H]2[C@@H](O)C[C@@]2(C)[C@H]1CC[C@]2(OC(=O)c1ccco1)C(=O)CSc1cnc2ccccc2n1", "VAL": 8.85}
{"STRUCTURE_NOTATION": "Cc1ccnc(SCC(=O)[C@@]2(OC(=O)c3ccco3)CC[C@H]3[C@@H]4CCC5=CC(=O)C=C[C@]5(C)[C@H]4[C@@H](O)C[C@@]32C)n1", "VAL": 8.68}
{"STRUCTURE_NOTATION": "C[C@]12CCC(=O)C=C1CC[C@@H]1[C@@H]2[C@@H](O)C[C@@]2(C)[C@H]1CC[C@]2(OC(=O)c1ccco1)C(=O)CSc1nc2ccccc2o1", "VAL": 8.66}

A. C[C@]12CCC(=O)C=C1CC[C@@H]1[C@@H]2[C@@H](O)C[C@@]2(C)[C@H]1CC[C@]2(OC(=O)c1ccco1)C(=O)CSc1ccc2ccccc2n1
B. C[C@]12C=CC(=O)C=C1CC[C@@H]1[C@@H]2[C@@H](O)C[C@@]2(C)[C@H]1CC[C@]2(OC(=O)c1ccco1)C(=O)CSc1nc2ccccc2s1
C. C[C@]12CCC(=O)C=C1CC[C@@H]1[C@@H]2[C@@H](O)C[C@@]2(C)[C@H]1CC[C@]2(OC(=O)c1ccco1)C(=O)CSc1nc2ncccc2s1
D. C[C@H]1C[C@@H]2[C@H]([C@@H](O)C[C@@]3(C)[C@H]2CC[C@]3(O)C(=O)CSc2nc3ccccc3s2)[C@@]2(C)C=CC(=O)C=C12
Rank items: key pIC50, increasing. # format: label list in the order the request specifies
D, C, A, B
(D: 7.41, C: 7.84, A: 8.55, B: 9.12)

I. C[C@]12C=CC(=O)C=C1CC[C@@H]1[C@@H]2[C@@H](O)C[C@@]2(C)[C@H]1CC[C@]2(OC(=O)c1ccco1)C(=O)CSc1nccc2ccccc12
II. Cn1c(SCC(=O)[C@@]2(OC(=O)c3ccco3)CC[C@H]3[C@@H]4CCC5=CC(=O)CC[C@]5(C)[C@H]4[C@@H](O)C[C@@]32C)nc2ccccc21
Of the two listed items, I and II , which carries the larger pIC50 figure? // return label of chosen record
I
(I: 8.68, II: 8.43)

====

Biological target: UniProtKB P04150
Sequence (P04150 whole entry): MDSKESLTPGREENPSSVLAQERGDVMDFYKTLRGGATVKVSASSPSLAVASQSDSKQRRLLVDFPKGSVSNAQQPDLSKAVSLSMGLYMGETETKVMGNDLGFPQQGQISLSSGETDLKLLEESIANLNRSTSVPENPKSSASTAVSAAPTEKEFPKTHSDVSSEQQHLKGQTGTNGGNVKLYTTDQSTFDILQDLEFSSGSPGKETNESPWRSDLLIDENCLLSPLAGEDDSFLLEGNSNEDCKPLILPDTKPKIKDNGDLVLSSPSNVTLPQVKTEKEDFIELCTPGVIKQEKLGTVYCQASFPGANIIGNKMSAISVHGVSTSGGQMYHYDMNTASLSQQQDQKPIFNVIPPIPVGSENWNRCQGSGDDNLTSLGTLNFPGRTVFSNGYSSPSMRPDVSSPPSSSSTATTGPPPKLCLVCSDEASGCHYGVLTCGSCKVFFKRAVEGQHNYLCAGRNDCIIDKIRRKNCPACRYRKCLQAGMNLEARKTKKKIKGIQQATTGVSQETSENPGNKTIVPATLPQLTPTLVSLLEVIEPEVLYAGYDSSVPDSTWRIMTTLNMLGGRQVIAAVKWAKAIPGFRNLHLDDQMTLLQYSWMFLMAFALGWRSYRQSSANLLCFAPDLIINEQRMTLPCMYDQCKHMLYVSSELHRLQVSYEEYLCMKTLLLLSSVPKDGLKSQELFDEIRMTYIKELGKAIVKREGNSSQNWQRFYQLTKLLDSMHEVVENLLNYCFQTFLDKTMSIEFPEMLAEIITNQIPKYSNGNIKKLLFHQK
Test: Transactivation activity at glucocorticoid receptor in human HepG2 cells assessed as induction of tyrosine amino transferase
Type: cell-based
PROPERTY: EC50 (nM)

{"STRUCTURE_NOTATION": "C[C@]12CCC(=O)C=C1CC[C@@H]1[C@@H]2[C@@H](O)C[C@@]2(C)[C@H]1CC[C@]2(OC(=O)c1ccco1)C(=O)CSc1nc2ccccc2o1", "SYSTEM_TESTED": "UniProtKB P04150", "EC50 / nM": 55.6}

I. C[C@]12C=CC(=O)C=C1CC[C@@H]1[C@@H]2[C@@H](O)C[C@@]2(C)[C@H]1CC[C@]2(OC(=O)c1ccco1)C(=O)CSc1nc2ccccc2s1
II. Cc1nc(SCC(=O)[C@@]2(OC(=O)c3ccco3)CC[C@H]3[C@@H]4CCC5=CC(=O)CC[C@]5(C)[C@H]4[C@@H](O)C[C@@]32C)sc1C
Select the item whose EC50 value is smaller, choosing between I and II . // return label of chosen record
II
